Sourced from ChEMBL document CHEMBL3400098

assay: Volume of distribution at steady state in dog at 5 mg/kg, po and 2 mg/kg, iv; format: ADME, organism-based, Canis lupus familiaris; conditions: in vivo, read-out: Vdss
experimental readout: Vd (L/kg)

> print(dat)
                              sample.smiles  experimental.value
1  CCOc1nc(NC(=O)C2(NC(=O)c3ccc4c(C5CCCC5)c(-c5ncc(Cl)cn5)n(C)c4c3)CCC2)ccc1/C=C/C(=O)O                0.28

====

test: Clearance in cynomolgous monkey at 2 mg/kg, iv; format: ADME, organism-based, Macaca fascicularis; design: dose 2 mg/kg, route intravenous; details: cynomolgus monkey, in vivo
experimental readout: clearance (mL/min/kg)

> print(dat)
                              sample.smiles  experimental.readout      units  experimental.value
1  CCOc1cc(NC(=O)C2(NC(=O)c3ccc4c(C5CCCC5)c(-c5ncc(Cl)cn5)n(C)c4c3)CCC2)ccc1/C=C/C(=O)O             clearance  mL/min/kg                 3.6
